- measurement-target: T1, BCL-XL (UniProt Q07817 1-209)
- T1 construct: Target of the Ki columns
- T1 sequence (Q07817 1-209): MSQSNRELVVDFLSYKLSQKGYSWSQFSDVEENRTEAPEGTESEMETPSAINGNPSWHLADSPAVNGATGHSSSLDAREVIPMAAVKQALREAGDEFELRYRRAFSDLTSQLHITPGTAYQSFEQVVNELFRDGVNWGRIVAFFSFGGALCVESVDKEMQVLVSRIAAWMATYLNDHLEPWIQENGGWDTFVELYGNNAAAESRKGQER
- method-notes: Ki; method not stated; unit not printed (nM per Table 6)
Starred links: 1 amine or outer side, 2 acyl side, 3 side chain; linkers in the order of their positions; H or OH if unused. Positions of bridges follow the written chain, without caps; N, C: chain ends. Non-standard residues stand in square brackets, D forms with d. St = two pentenyl-alanine olefin side chains, each crosslinked to another residue (stitch), C=CCCCC(CCCC=C)(N[*:1])C(=O)[*:2]; R8 = C=CCCCCCC[C@@](C)(N)C(=O)O; S8 = C=CCCCCCC[C@](C)(N)C(=O)O; R5 = C=CCCC[C@@](C)(N)C(=O)O; S5 = C=CCCC[C@](C)(N)C(=O)O
measured-parameter: pKi
Answers are plain numbers, as −log10 of the molar value.

[
  {
    "binder": "Ac-I[R8]IAQALR[St]IGDEFN[S8]YYA-NH2 (staple 9-16, 2-9, Row prints Ac-I$r8IAQALRStIGDEFN$s8YYA-NH2) [SEQ ID NO: 1782]",
    "pKi": 8.96
  },
  {
    "binder": "IWIAQALRAIGDAANAYYA (N-terminal Ac; $r8 at 9 and $ at 16 (crosslinked); 2Nal at 14; C-terminal NH2) [SEQ ID NO: 1746]",
    "pKi": 7.72
  },
  {
    "binder": "Ac-IWIAQALR[R8]IGDEFN[St]YYA[R5]A-NH2 (staple 16-20, 9-16) [SEQ ID NO: 1784]",
    "pKi": 7.62
  },
  {
    "binder": "Ac-IWIA[S5]ALR[St]IGDEFN[S8]YYA-NH2 (staple 9-16, 5-9, Row prints Ac-IWIA$ALRStIGDEFN$s8YYA-NH2) [SEQ ID NO: 1783]",
    "pKi": 8.80
  }
]

As a next step, examine the binder that follows.
Exercise: // query pKi value for entry IWIAQALRAIGDAXNAYYA (N-terminal Ac; $r8 at 9 and $ at 16 (crosslinked); Bip at 14; C-terminal NH2) [SEQ ID NO: 1747]
Solution: 7.00
